Recorded values, source patent US20200277375A1.

- tgt: T1, cynomolgus monkey CD47 on transfected CHO-K1 cells (cynomolgus monkey, UniProt A0A5F8AK49 19-323 (rhesus entry))
- T1 construct: whole, on cells; also called cyno CD47+ cells
- assay_explanation: flow cytometry, cyno CD47-transfected CHO-K1, FIG. 6
maximum MFI, fold over untransfected CHO-K1 values by entry

binder: mVH/mVL (chimeric VxP037) in human IgG1null format (antibody, V domains shown, Murine v-domains on human IgG1null (IgG1 L234A/L235A/G237A), kappa; also called VP037; Chimeric anti-CD47) VH: EVQLQQFGAELVKPGASMKLSCKASGYTFTNYYVFWVKQRPGQGLEWIGDINPVNGDTNFNEKFKNKATLTVDKSSTTTYLQLSSLTSEDSAVYYCTRGGYTMDYWGQGTLVTVSS VL: DVVMTQTPLSLSVSLGDQASISCRSSQSLVHSNGNTYLHWYLQKPGQSPKLLIYKVSYRFSGVPDRFSGSGSGTDFTLKISRVEAEDLGVYFCSQNTHVPRTFGQGTKVEIK
meas_value: > 10 fold

Entry mVH/mVL (chimeric VxP037) in human IgG4(S228P) format (antibody, V domains shown, IgG4 with S228P; also called mVH/mVL IgG4) VH: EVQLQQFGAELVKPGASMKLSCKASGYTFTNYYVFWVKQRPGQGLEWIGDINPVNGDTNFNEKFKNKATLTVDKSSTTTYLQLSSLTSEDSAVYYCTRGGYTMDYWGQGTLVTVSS VL: DVVMTQTPLSLSVSLGDQASISCRSSQSLVHSNGNTYLHWYLQKPGQSPKLLIYKVSYRFSGVPDRFSGSGSGTDFTLKISRVEAEDLGVYFCSQNTHVPRTFGQGTKVEIK has what maximum MFI, fold over untransfected CHO-K1? > 10 fold

Which maximum MFI, fold over untransfected CHO-K1 reading was recorded for the binder G-B6 in human IgG1null format (antibody, V domains shown, IgG1null (L234A/L235A/G237A), kappa) VH: EVQLVQSGAEVKKPGESLKISCKGSGYSFTNYYIFWVRQMPGKGLEWIGDINPVNGDTNFSPSFQGQVTISADKSISTAYLQWSSLKASDTAMYYCARGGYTMDKWGQGTLVTVSS VL: DIVMTQSPLSLPVTPGEPASISCRSSQSLVHSNGYTYLHWYLQKPGQSPQLLIYKGSYRASGVPDRFSGSGSGTDFTLKISRVEAEDVGVYYCSQNTQTPRTFGQGTKVEIK ? > 10 fold
